Exercise: state measured FACS fold reduction compared to PP WT for each of the binders provided.
Biological target: T1, human CD7 on cells (human, UniProt P09564 26-240)
T1 construct: whole, on cells; Target of the FACS and cell capture values and of the kill assays on CD7 single positive cells; also called CD7+ cells; Jurkat (CD33-/CD7+)
T1 sequence (looked up): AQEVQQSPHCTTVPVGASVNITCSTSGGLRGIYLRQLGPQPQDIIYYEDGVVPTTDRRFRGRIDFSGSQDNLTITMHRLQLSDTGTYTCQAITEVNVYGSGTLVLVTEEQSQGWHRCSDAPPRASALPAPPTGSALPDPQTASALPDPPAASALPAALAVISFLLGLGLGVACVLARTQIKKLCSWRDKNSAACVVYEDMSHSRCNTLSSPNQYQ
Assay: FACS; reference 7-PP-1 WT
Give bare numbers, in fold.

Some binders with recorded FACS fold reduction compared to PP WT:
CD7-PP-3 CD7 binding arm (Fab, V domains shown, Heavy chain Arg57Lys) VH: QVQLQESGAELVKPGASVKLSCKASGYTFTSYWMHWVKQRPGQGLEWIGKINPSNGKTNYNEKFKSKATLTVDKSSSTAYMQLSSLTSEDSAVYYCARGGVYYDLYYYALDYWGQGTTVTVSS VL: DIELTQSPATLSVTPGDSVSLSCRASQSISNNLHWYQQKSHESPRLLIKSASQSISGIPSRFSGSGSGTDFTLSINSVETEDFGMYFCQQSNSWPYTFGGGTKLEIKR ... 24.5
CD7-PP-7 CD7 binding arm (Fab, V domains shown, Heavy chain Arg57Gly/Tyr108Ala) VH: QVQLQESGAELVKPGASVKLSCKASGYTFTSYWMHWVKQRPGQGLEWIGKINPSNGGTNYNEKFKSKATLTVDKSSSTAYMQLSSLTSEDSAVYYCARGGVYYDLYYAALDYWGQGTTVTVSS VL: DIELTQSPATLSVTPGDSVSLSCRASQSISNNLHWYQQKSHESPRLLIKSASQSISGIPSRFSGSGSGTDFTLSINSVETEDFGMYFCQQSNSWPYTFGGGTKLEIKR ... 502
7-PP-11 (Fab, V domains shown) VH: QVQLQESGAELVKPGASVKLSCKASGYTFTSYWMHWVKQRPGQGLEWIGKINPSNGRTNYNEKFKSKATLTVDKSSSTAYMQLSSLTSEDSAVYYCARGGVYYALYYAALDYWGQGTTVTVSS VL: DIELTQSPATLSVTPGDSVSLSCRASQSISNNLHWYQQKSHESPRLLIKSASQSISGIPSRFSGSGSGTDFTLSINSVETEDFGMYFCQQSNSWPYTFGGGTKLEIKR ... 105
CD7-PP-13 CD7 binding arm (Fab, V domains shown, Heavy chain CDR3 Tyr108Ala; also called 7-PP-13 (mut_17-AA-1)) VH: QVQLQESGAELVKPGASVKLSCKASGYTFTSYWMHWVKQRPGQGLEWIGKINPSNGRTNYNEKFKSKATLTVDKSSSTAYMQLSSLTSEDSAVYYCARGGVYYDLYYAALDYWGQGTTVTVSS VL: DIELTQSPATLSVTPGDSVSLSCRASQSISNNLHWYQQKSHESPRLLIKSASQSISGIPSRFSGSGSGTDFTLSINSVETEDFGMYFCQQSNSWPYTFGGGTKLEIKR ... 53.2
7-PP-5 (Fab, V domains shown) VH: QVQLQESGAELVKPGASVKLSCKASGYTFTSYWMHWVKQRPGQGLEWIGKINPSNGRTNYNEKFKSKATLTVDKSSSTAYMQLSSLTSEDSAVYYCARGGVYYDGYYYALDYWGQGTTVTVSS VL: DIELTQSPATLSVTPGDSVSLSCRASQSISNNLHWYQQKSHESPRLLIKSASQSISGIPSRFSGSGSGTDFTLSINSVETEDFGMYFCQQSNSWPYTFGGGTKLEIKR ... 503

Batch: FACS fold reduction compared to PP WT for all items listed.
1. CD7-PP-6 binding arm (Fab, V domains shown, Heavy chain Asp104Ala) VH: QVQLQESGAELVKPGASVKLSCKASGYTFTSYWMHWVKQRPGQGLEWIGKINPSNGRTNYNEKFKSKATLTVDKSSSTAYMQLSSLTSEDSAVYYCARGGVYYALYYYALDYWGQGTTVTVSS VL: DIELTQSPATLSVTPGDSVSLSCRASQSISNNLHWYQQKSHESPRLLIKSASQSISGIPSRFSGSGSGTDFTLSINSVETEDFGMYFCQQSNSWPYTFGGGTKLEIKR
2. 7-PP-4 (Fab, V domains shown) VH: QVQLQESGAELVKPGASVKLSCKASGYTFTSYWMHWVKQRPGQGLEWIGKINPSNGRTNYNEKFKSKATLTVDKSSSTAYMQLSSLTSEDSAVYYCARGGVTYDLYYYALDYWGQGTTVTVSS VL: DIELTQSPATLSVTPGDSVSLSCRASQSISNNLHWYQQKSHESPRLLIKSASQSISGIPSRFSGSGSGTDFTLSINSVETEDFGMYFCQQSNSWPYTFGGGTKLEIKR
3. CD7-PP-12 CD7 binding arm (Fab, V domains shown, Light chain Gln27Ala) VH: QVQLQESGAELVKPGASVKLSCKASGYTFTSYWMHWVKQRPGQGLEWIGKINPSNGRTNYNEKFKSKATLTVDKSSSTAYMQLSSLTSEDSAVYYCARGGVYYDLYYYALDYWGQGTTVTVSS VL: DIELTQSPATLSVTPGDSVSLSCRASASISNNLHWYQQKSHESPRLLIKSASQSISGIPSRFSGSGSGTDFTLSINSVETEDFGMYFCQQSNSWPYTFGGGTKLEIKR
4. 7-PP-10 (Fab, V domains shown) VH: QVQLQESGAELVKPGASVKLSCKASGYTFTSYWMHWVKQRPGQGLEWIGKINPSNGRTNYNEKFKSKATLTVDKSSSTAYMQLSSLTSEDSAVYYCARGGVYYDGYYAALDYWGQGTTVTVSS VL: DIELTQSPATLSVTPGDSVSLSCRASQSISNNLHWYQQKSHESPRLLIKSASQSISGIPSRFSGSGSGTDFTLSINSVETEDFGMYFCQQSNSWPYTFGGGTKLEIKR
5. CD7-PP-2 CD7 binding arm (Fab, V domains shown, Heavy chain Arg57Gly) VH: QVQLQESGAELVKPGASVKLSCKASGYTFTSYWMHWVKQRPGQGLEWIGKINPSNGGTNYNEKFKSKATLTVDKSSSTAYMQLSSLTSEDSAVYYCARGGVYYDLYYYALDYWGQGTTVTVSS VL: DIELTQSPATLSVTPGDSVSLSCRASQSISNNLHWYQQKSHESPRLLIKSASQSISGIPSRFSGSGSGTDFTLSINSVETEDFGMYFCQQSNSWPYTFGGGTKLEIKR

[reply]
18.3
3740
0.004
628
64.9

Ref: patent US20250269048A1
